Measured values drawn from paper PMC3813752 for this set.

# subject.of.test: human CB2 receptor (Homo sapiens)
# assay.details: cAMP accumulation assay, CHO cells expressing CB2
# Type: cell-based
# measurement.parameters: in words; standard ligands partly from the literature
measurement.type: functional property at CB2 (agonist/antagonist)

Some compounds with known functional property at CB2 (agonist/antagonist) results, for comparison:
Lookup: // output functional property at CB2 (agonist/antagonist); input C=CCc1ccc(O)c(-c2ccc(OC)c(CC=C)c2)c1 [Compound 11, 4′-O-Methylhonokiol, reference compound] ; system human CB2 receptor (Homo sapiens)
Found: agonist

Lookup: Enter recorded functional property at CB2 (agonist/antagonist) with human CB2 receptor (Homo sapiens) for COc1ccc(-c2oc3cc(OC)ccc3c2C(=O)c2ccc(C#N)cc2)cc1 [Compound 6, reference compound] here.
Found: antagonist

Lookup: Write functional property at CB2 (agonist/antagonist) of CCCCCCC(C)(C)c1ccc(C2CC(O)CCC2CCCO)c(O)c1 (single isomer, unassigned; (-)) [Compound 4, reference compound] ; system used: human CB2 receptor (Homo sapiens)
Found: agonist

Lookup: Find functional property at CB2 (agonist/antagonist) for CCCc1ccc(O)c(-c2cc(CCC)ccc2O)c1 [Compound 12, tetrahydromagnolol] on human CB2 receptor (Homo sapiens) and write it down.
Found: agonist

Lookup: // output functional property at CB2 (agonist/antagonist); input COc1ccc(C(=O)c2c(C)n(CCN3CCOCC3)c3cc(I)ccc23)cc1 [Compound 7, reference compound] ; system human CB2 receptor (Homo sapiens)
Found: antagonist

Lookup: Enter measured functional property at CB2 (agonist/antagonist), system human CB2 receptor (Homo sapiens), for the compound shown: CCCCCc1cc(O)c2c(c1)OC(C)(C)[C@@H]1CCC(C)=C[C@@H]21 [Compound 1, Δ^9-tetrahydrocannabinol, reference compound]
Found: agonist

Here is another compound to look at.
Lookup: Print human CB2 receptor (Homo sapiens) functional property at CB2 (agonist/antagonist) for Cc1c(C(=O)NN2CCCCC2)nn(-c2ccc(Cl)cc2Cl)c1-c1ccc(Cl)cc1 [Compound 5, rimonabant, reference compound] .
Found: antagonist

* * *

# subject.of.test: human GPR55 (Homo sapiens)
# assay.details: β-arrestin recruitment assay (PathHunter), CHO cells expressing GPR55
# measurement.parameters: CHO, read-out: % inhibition of LPI (1 µM)-induced β-arrestin recruitment at GPR55, test compound at 10 µM
measurement.type: inhibition at 10 µM (%)
Please state the figure in %; there is no need to write the unit.

Lookup: Could you please provide reported inhibition at 10 µM for CCCCCc1ccc(O)c(-c2cc(CCCCC)ccc2O)c1 ? Thanks!
Found: 2

Others:
Lookup: Given CCCCCCc1ccc(O)c(-c2cc(CCCCCC)ccc2O)c1 , respond with its inhibition at 10 µM.
Found: 0

Lookup: Indicate the recorded inhibition at 10 µM value for this molecule: CCCc1ccc(O)c(-c2ccccc2O)c1
Found: 37

Lookup: Consider the molecule CCCCCc1ccc(O)c(-c2cc(CCC)ccc2O)c1 . State its measured inhibition at 10 µM.
Found: 45

* * *

human CB1 receptor (Homo sapiens, UniProt P21554) measurements of Ki, listed per entry.
Sequence (P21554 whole entry): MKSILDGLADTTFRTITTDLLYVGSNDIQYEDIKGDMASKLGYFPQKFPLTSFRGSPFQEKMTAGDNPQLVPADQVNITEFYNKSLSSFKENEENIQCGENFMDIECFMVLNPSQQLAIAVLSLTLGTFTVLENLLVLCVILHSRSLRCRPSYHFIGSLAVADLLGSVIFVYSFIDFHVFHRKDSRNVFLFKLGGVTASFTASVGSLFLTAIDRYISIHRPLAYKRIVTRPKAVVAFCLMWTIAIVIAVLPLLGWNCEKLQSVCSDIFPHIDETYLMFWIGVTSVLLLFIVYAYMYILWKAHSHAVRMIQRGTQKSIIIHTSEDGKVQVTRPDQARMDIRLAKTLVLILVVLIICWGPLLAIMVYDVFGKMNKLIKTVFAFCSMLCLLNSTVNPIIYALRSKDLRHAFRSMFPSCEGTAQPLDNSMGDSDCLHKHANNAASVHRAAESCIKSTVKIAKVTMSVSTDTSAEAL

In the examples that follow, each entry is paired with its recorded Ki.
Lookup: Respond only with Ki recorded for CCCCCc1ccc(O)c(-c2cc(CCCCC)ccc2O)c1
Found: 3.13 µM

Lookup: Tell me measured Ki for CCCCCc1ccc(O)c(-c2ccccc2O)c1 please.
Found: 6.59 µM

Lookup: Identify the reported Ki for the following entry. CCCCc1ccc(O)c(-c2ccccc2O)c1
Found: ~1 µM

Lookup: Supply reported Ki belonging to this molecule: CCCCc1ccc(O)c(-c2cc(CCCC)ccc2O)c1
Found: 2.7 µM

Continuing:
Lookup: Given CCCc1ccc(O)c(-c2cc(CC)ccc2O)c1 , respond with its Ki.
Found: ~1 µM

Lookup: Give me measured Ki, please, for this molecule: CCCCCCc1ccc(OC)c(-c2cc(CCC)ccc2O)c1 [Compound 61b]
Found: 0.313 µM

Lookup: Given CCCCCCc1ccc(O)c(-c2cc(CCCC)ccc2O)c1 , respond with its Ki.
Found: 2.6 µM

Lookup: Supply measured Ki of CCCCCCc1ccc(O)c(-c2cc(CCCCCC)ccc2O)c1 in your reply.
Found: 4.64 µM

* * *

# subject.of.test: human CB2 receptor (Homo sapiens, UniProt P34972)
# Sequence (P34972 whole entry): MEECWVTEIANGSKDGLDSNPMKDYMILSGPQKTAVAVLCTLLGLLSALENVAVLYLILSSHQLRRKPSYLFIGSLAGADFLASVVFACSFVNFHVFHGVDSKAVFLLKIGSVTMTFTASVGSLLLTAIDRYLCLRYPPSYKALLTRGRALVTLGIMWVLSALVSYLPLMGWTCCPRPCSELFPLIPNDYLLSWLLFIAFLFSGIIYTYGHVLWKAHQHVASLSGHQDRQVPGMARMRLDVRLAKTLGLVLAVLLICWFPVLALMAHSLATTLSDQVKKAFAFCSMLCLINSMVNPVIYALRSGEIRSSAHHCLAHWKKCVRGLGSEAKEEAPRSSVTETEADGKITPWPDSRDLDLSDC
# assay.details: Radioligand binding (heterologous competition) vs. [3H]CP55,940 at CB2
# measurement.parameters: membranes of CHO cells expressing human CB2; three independent experiments in duplicates; read-out: Ki CB2, heterologous competition vs. [3H]CP55,940
measurement.type: pKi
In plain terms, pKi is the concentration in mol/L turned into minus its base-10 logarithm.

Lookup: Please report the measured pKi for CCCCc1ccc(O)c(-c2cc(CCC)ccc2O)c1
Found: 6.33

Lookup: Item CCCCCc1ccc(O)c(-c2cc(CCCCC)ccc2O)c1 : provide pKi
Found: 6.08

Lookup: Supply reported pKi belonging to this compound: CCCc1ccc(O)c(-c2cc(C(C)(C)C)ccc2O)c1
Found: 6.31

Lookup: Answer with reported pKi of CCCCc1ccc(O)c(-c2cc(CCCC)ccc2O)c1
Found: 5.80

Lookup: Check the records and state pKi for CCCCc1ccc(O)c(-c2ccccc2O)c1
Found: 5.69

Lookup: For CCCCc1ccc(O)c(-c2cc(CC)ccc2O)c1 , write its pKi.
Found: 6.63

Lookup: Determine its reported pKi: CCCCCCc1ccc(O)c(-c2cc(C)ccc2O)c1
Found: 6.56

Lookup: Determine its reported pKi: CCCCc1ccc(O)c(-c2cc(C)ccc2O)c1
Found: 5.77

Lookup: Give the reported value of pKi for this record: CCCCCCc1ccc(O)c(-c2cc(CCCCCC)ccc2O)c1
Found: 5.74

* * *

Below, each entry is listed with its recorded agonist effect on β-arrestin recruitment at GPR55.
# subject.of.test: human GPR55 (Homo sapiens, UniProt Q9Y2T6)
# Sequence (Q9Y2T6 whole entry): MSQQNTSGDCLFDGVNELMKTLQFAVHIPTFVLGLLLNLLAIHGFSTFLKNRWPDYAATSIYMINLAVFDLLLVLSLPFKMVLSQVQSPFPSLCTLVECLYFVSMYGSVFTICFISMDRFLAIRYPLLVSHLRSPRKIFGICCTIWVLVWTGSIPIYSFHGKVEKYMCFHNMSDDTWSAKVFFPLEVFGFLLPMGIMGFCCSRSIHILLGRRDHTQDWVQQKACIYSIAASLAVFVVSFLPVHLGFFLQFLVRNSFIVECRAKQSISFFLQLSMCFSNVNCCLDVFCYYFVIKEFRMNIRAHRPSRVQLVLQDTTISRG
# assay.details: β-arrestin recruitment assay (PathHunter), CHO cells expressing GPR55
# measurement.parameters: test compound 10 µM, related to effect of LPI 1 µM = 100%
Give just the number in %; leave the unit off.

Solved cases (5 shown):
Lookup: Indicate its recorded agonist effect on β-arrestin recruitment at GPR55; the molecule in question is CCCCCc1ccc(O)c(-c2cc(CC)ccc2O)c1
Found: 3

Lookup: Give agonist effect on β-arrestin recruitment at GPR55 for COc1ccc(-c2oc3cc(OC)ccc3c2C(=O)c2ccc(C#N)cc2)cc1 [Compound 6, reference compound]
Found: 0

Lookup: For C=CCc1ccc(O)c(-c2cc(CC=C)ccc2O)c1 [Compound 9, reference compound] , write its agonist effect on β-arrestin recruitment at GPR55.
Found: 11

Lookup: Look up agonist effect on β-arrestin recruitment at GPR55 of C=CCc1ccc(O)c(-c2ccc(O)c(CC=C)c2)c1 [Compound 10, honokiol, reference compound] and report it.
Found: 27

Lookup: Read the entry C=CCc1ccc(O)c(-c2ccc(OC)c(CC=C)c2)c1 [Compound 11, 4′-O-Methylhonokiol, reference compound] and write its reported agonist effect on β-arrestin recruitment at GPR55.
Found: 4

Further cases:
Lookup: State, in one line, measured agonist effect on β-arrestin recruitment at GPR55 of CCCCCCc1ccc(O)c(-c2cc(CCCC)ccc2O)c1
Found: 36

Lookup: Write down agonist effect on β-arrestin recruitment at GPR55 measured for item CCCCc1ccc(O)c(-c2cc(CCCC)ccc2O)c1
Found: 29

Lookup: Tell us which agonist effect on β-arrestin recruitment at GPR55 value is on record for CCCCCCc1ccc(OC)c(-c2cc(CCC)ccc2O)c1 [Compound 61b]
Found: 0

* * *

# subject.of.test: human GPR55 (Homo sapiens, UniProt Q9Y2T6)
# assay.details: β-arrestin recruitment assay (PathHunter), CHO cells expressing GPR55
# measurement.parameters: read-out: GPR55 IC50, β-arrestin recruitment; antagonist mode vs. LPI (1 µM)
measurement.type: pIC50
Scale: negative log10 of molar concentration, which is what pIC50 denotes.

Lookup: In one line, give reported pIC50 of the entry CCCCCc1cc(O)c2c(c1)OC(C)(C)[C@@H]1CCC(C)=C[C@@H]21 [Compound 1, Δ^9-tetrahydrocannabinol, reference compound] .
Found: 4.85

* * *

# subject.of.test: human GPR55 (Homo sapiens, UniProt Q9Y2T6)
# assay.details: β-arrestin recruitment assay (PathHunter), CHO cells expressing GPR55
# measurement.parameters: read-out: GPR55 EC50, β-arrestin recruitment; agonist mode
measurement.type: EC50 (µM)
State the answer as a number, implicitly in µM.

Lookup: Recall the reported EC50 of Cc1c(C(=O)NN2CCCCC2)nn(-c2ccc(Cl)cc2Cl)c1-c1ccc(Cl)cc1 [Compound 5, rimonabant, reference compound] on human GPR55 (Homo sapiens, UniProt Q9Y2T6) and write it down.
Found: 2.01

* * *

# subject.of.test: human GPR55 (Homo sapiens, UniProt Q9Y2T6)
# assay.details: β-arrestin recruitment assay (PathHunter), CHO cells expressing GPR55
# measurement.parameters: CHO, read-out: % inhibition of LPI (1 µM)-induced β-arrestin recruitment at GPR55
Parameter: inhibition at 10 µM. Scope: all listed entries.
Write it as a number; the unit % goes unstated.

Lookup: Find the measured inhibition at 10 µM of CCCCCCc1ccc(O)c(-c2cc(CCC)ccc2OC)c1 [Compound 61a] with human GPR55 (Homo sapiens, UniProt Q9Y2T6) as test system.
Found: 58

Lookup: Answer with inhibition at 10 µM of CCCCCCC(C)(C)c1ccc(C2CC(O)CCC2CCCO)c(O)c1 (single isomer, unassigned; (-)) [Compound 4, reference compound] measured for human GPR55 (Homo sapiens, UniProt Q9Y2T6).
Found: 93

Lookup: Tell me inhibition at 10 µM of CCCc1ccc(O)c(-c2cc(CCC)ccc2O)c1 [Compound 12, tetrahydromagnolol] when tested on human GPR55 (Homo sapiens, UniProt Q9Y2T6).
Found: 96

Lookup: Enter recorded inhibition at 10 µM with human GPR55 (Homo sapiens, UniProt Q9Y2T6) for CCCCCc1cc(O)c2c(c1)OC(C)(C)[C@@H]1CCC(C)=C[C@@H]21 [Compound 1, Δ^9-tetrahydrocannabinol, reference compound] here.
Found: 65

Lookup: Tell me its inhibition at 10 µM on human GPR55 (Homo sapiens, UniProt Q9Y2T6): CCCc1ccc(O)c(-c2cc(CCC)ccc2OC)c1 [Compound 12a, methoxytetrahydromagnolol]
Found: 82

Others:
Lookup: Give inhibition at 10 µM only, for CCCCCc1ccc(O)c(-c2cc(CCC)ccc2OC)c1 [Compound 60a] , using human GPR55 (Homo sapiens, UniProt Q9Y2T6) data.
Found: 66

Lookup: Quote inhibition at 10 µM with test system human GPR55 (Homo sapiens, UniProt Q9Y2T6) for C=CCc1ccc(O)c(-c2ccc(O)c(CC=C)c2)c1 [Compound 10, honokiol, reference compound]
Found: 42
